- Target of assay: CYP3A4 (Homo sapiens)
- Sequence (P08684 whole entry): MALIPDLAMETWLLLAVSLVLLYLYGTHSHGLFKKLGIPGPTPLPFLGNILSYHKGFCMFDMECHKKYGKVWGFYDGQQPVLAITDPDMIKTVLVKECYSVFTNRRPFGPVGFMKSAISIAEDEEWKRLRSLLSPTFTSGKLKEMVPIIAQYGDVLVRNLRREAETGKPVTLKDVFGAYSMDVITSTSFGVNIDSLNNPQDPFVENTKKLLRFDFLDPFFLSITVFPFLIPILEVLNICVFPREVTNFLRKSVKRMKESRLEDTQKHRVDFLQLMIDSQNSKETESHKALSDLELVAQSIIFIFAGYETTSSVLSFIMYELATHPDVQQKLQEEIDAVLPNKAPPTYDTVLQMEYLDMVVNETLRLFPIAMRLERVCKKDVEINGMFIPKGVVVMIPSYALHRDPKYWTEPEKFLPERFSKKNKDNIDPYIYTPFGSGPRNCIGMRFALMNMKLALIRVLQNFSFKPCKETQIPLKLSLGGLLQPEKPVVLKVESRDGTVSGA
- Method description: in vitro
- Measurement conditions: CYP3A4 enzyme (Promega P450-Glo luminescent assay)
Readout name: IC50
Be sure to follow the number with its unit.

get_value(item= `CCn1cncc1-c1c[nH]c2ccc(OC)cc12.Cl` , readout=IC50) returns 240 nM

----------
- Target of assay: human serotonin 5-HT2A receptor (Homo sapiens)
- Construct: host or cells: CHO-K1
- Sequence (P28223 whole entry): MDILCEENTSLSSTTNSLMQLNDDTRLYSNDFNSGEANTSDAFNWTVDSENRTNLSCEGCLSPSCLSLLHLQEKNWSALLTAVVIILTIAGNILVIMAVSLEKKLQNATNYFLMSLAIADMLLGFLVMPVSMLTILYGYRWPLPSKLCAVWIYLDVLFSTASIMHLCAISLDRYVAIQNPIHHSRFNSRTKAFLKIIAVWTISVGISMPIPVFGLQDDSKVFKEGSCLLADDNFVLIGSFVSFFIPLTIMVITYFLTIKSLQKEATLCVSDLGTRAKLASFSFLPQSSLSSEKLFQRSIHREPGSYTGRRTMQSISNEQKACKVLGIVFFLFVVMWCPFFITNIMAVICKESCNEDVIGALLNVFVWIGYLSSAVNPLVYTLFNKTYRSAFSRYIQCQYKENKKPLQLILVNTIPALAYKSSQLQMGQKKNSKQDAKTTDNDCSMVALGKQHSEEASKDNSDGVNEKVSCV
- Method description: Radioligand binding, [3H]-ketanserin displacement
- Measurement conditions: Fig. 2; read-out: pKi 5-HT2A (converted)
Readout name: Ki

Example cases with answers are listed next.
get_value(item= `COc1ccc(-c2cncn2C)cc1` , readout=Ki) returns > 10 µM

get_value(item= `CCn1cncc1-c1cn(C)c2ccccc12` , readout=Ki) returns > 10 µM

get_value(item= `CCn1cncc1-c1c[nH]c2ccc(OCc3ccccc3)cc12` , readout=Ki) returns > 10 µM

get_value(item= `COc1cccc(-c2cncn2C)c1` , readout=Ki) returns > 10 µM

Next:
get_value(item= `CCn1cncc1-c1c[nH]c2cc(Br)ccc12` , readout=Ki) returns > 10 µM

get_value(item= `CCn1cncc1-c1cn(C)c2ccc(OC)cc12` , readout=Ki) returns > 10 µM

get_value(item= `COc1ccc(-c2c([N+](=O)[O-])ncn2C)cc1` , readout=Ki) returns > 10 µM

get_value(item= `CCn1cncc1-c1c[nH]c2ccc(C#N)cc12` , readout=Ki) returns > 10 µM

----------
The following compounds are listed with their measured EC50 values.
- Target of assay: human 5-HT7 receptor (Homo sapiens, UniProt P34969)
- Sequence (P34969 1-432 limits assumed): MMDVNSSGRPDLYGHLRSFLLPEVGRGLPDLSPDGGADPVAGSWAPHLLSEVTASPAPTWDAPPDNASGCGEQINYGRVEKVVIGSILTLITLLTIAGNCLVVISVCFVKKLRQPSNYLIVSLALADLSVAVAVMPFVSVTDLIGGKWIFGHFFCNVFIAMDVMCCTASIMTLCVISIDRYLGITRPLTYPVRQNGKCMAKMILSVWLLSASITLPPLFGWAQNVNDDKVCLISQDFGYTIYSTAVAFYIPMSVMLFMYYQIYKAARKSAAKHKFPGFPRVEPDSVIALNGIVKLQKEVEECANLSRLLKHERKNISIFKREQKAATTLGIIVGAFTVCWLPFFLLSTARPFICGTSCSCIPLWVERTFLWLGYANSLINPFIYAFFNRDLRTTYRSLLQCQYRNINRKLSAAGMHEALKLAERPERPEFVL
- Method description: Functional assay, cAMP production (TR-FRET) in HEK293 cells overexpressing 5-HT7R
- Format: cell-based
- Measurement conditions: hydrochloride salts
Numeric answer only, unit nM assumed.

Example cases with answers are listed next.
CCn1cncc1-c1c[nH]c2ccc(C)cc12 [1q] tested on human 5-HT7 receptor (Homo sapiens, UniProt P34969) gave EC50: 45

CCn1cncc1-c1c[nH]c2ccc(Br)cc12 [1n] tested on human 5-HT7 receptor (Homo sapiens, UniProt P34969) gave EC50: 154

COc1ccc2[nH]cc(-c3cncn3C)c2c1 [1b] tested on human 5-HT7 receptor (Homo sapiens, UniProt P34969) gave EC50: 150

CCn1cncc1-c1c[nH]c2ccc(Cl)cc12 [1m] tested on human 5-HT7 receptor (Homo sapiens, UniProt P34969) gave EC50: 149

CCn1cncc1-c1c[nH]c2ccc(OC)cc12.Cl [1e] tested on human 5-HT7 receptor (Homo sapiens, UniProt P34969) gave EC50: 60

# ---- query compound ----
CCn1cncc1-c1c[nH]c2ccc(I)cc12 [1o] tested on human 5-HT7 receptor (Homo sapiens, UniProt P34969) gave EC50: 19

----------
- Target of assay: human serotonin 5-HT1AR (Homo sapiens)
- Sequence (P08908 whole entry): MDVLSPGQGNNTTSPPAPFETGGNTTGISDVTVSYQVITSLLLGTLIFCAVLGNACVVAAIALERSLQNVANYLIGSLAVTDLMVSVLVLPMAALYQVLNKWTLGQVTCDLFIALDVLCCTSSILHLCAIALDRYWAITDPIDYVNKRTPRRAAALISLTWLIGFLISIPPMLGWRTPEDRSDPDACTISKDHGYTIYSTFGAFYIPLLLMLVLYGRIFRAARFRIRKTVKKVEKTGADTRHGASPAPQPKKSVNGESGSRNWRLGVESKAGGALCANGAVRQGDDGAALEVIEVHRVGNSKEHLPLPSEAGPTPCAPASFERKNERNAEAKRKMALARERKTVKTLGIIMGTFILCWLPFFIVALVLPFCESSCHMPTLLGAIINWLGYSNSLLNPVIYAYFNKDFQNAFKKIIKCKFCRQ
- Method description: Radioligand binding, [3H]-8-OH-DPAT displacement
The following compounds are listed with their measured Ki values.
Be sure to follow the number with its unit.

Example cases with answers are listed next.
get_value(item= NCCc1c[nH]c2ccc(Cl)cc12 [5-chlorotryptamine, reference compound] , readout=Ki) returns 0.016 µM

get_value(item= Cc1ccc2[nH]cc(CCN)c2c1 [5-methyltryptamine, reference compound] , readout=Ki) returns 0.039 µM

Next:
get_value(item= Cn1cc(CCN)c2ccccc21 [1-methyltryptamine, reference compound] , readout=Ki) returns 2.39 µM
